test: Ring1 mRNA increase in mouse ESCs, confirmation, esBAF inhibitor project, cell-based, mouse ESC, RT-qPCR, cherry-pick (AID 743176); conditions: mouse ESC E14, Ring1 mRNA RT-qPCR fold change; at 33 µM; hits give high values;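 further: Ring1 transcript normalised to actin housekeeping signal by TaqMan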
This is one part of the list.
measurement type: fold change
Simply state the number, no unit and no words.

Some solved entries appear below for comparison.
{"columns": ["smiles data", "fold change"],
 "data": [
  ["Cc1cc(Cl)nc(NC(=O)Nc2cccc(Cl)c2)n1", 1.28],
  ["COc1cc2ccccc2cc1C(=O)Nc1ccccc1C", 0.965],
  ["COc1cc2ccccc2cc1C(=O)Nc1ccncc1", 1.54],
  ["O=C(c1cc(-c2ccc(Cl)cc2)on1)N1CCN(c2ccccc2)CC1", 1.06]
]}

Read off the recorded fold change for COc1ccc(/C=N/OCc2ccccc2C#N)c(OC)c1
0.981

Supply reported fold change belonging to this compound: O=C(c1noc2c1CCCC2)N1CCc2ccccc2C1
1.19
